Tested on: M. tuberculosis H37Rv
EXPERIMENTAL_CONTEXT: microdilution broth, 96-well, 2 × 10^5 CFU/mL, 37 °C 14 days, resazurin 48 h; conducted twice with three technical replicates each
Square brackets hold non-standard residues; d marks the D form. Peptide text beside a SMILES is read from it.
PARAMETER: MIC in µg/mL, H37Rv (µg/mL)
One number for each entry, in µg/mL.

Short answer please: MIC in µg/mL, H37Rv, M. tuberculosis H37Rv, entry CC[C@@H](C)[C@@H](NC(=O)[C@@H](CCCCN)NC(=O)[C@H](N)Cc1c[nH]c2ccccc12)C(=O)N[C@@H](C(=O)N[C@H](Cc1ccccc1)C(=O)N[C@H](CC(N)=O)C(=O)N[C@H](Cc1c[nH]c2ccccc12)C(=O)N[C@H](CCCNC(=N)N)C(=O)N[C@H](CCCNC(=N)N)C(N)=O)C(C)C [wkivfnwrr] (H-[dW][dK][dI][dV][dF][dN][dW][dR][dR]-NH2; N-terminus assumed)
20
